system: eNOS promoter; assay: Activation of eNOS transcription (eNOS promoter-luciferase reporter gene assay); type: cell-based, human; conditions: EC50 of transcription induction ratio vs compound concentration, determined graphically; human endothelial cell line stably transfected with eNOS promoter-luciferase construct; 18 h incubation
Counter-ions that a name gives are not always drawn.
measurement_type: EC50 (nM)
Please give a number only; it is taken to be in nM.

Please look up its EC50: Cc1nc2cc(C(=O)N[C@H]3CCCc4ccccc4C3)ccc2[nH]1 [Compound 36, HYDROCHLORIDE] 50

Please look up its EC50: "CNc1cncc(C(=O)N[C@H]2CCCc3ccccc3C2)n1" 150

Please look up its EC50: Nc1nccnc1C(=O)NC1CCCc2ccccc2C1 (single isomer, unassigned) 60

Please look up its EC50: CS(=O)(=O)c1cccc(C(=O)NC2CCCc3ccccc3C2)c1 (centres unmarked) 1900

Please look up its EC50: Cc1cc(C(=O)NC2CCCc3ccccc3C2)c(C)[nH]1 (single isomer, unassigned; (-)) [Compound 50] 1800

###

Would you mind telling me the reported log10 EC50 of each entry?
system: eNOS promoter; assay: Activation of eNOS transcription (eNOS promoter-luciferase reporter gene assay); assay type: cell-based, human; conditions: EC50 of transcription induction ratio vs compound concentration, determined graphically; human endothelial cell line stably transfected with eNOS promoter-luciferase construct; 18 h incubation
Structures can show the parent of a compound that is named as a salt.
# values: log10(EC50), units µM

Please look up its log10 EC50: CNc1nc(C)ccc1C(=O)NC1CCCc2ccccc2C1 (single isomer, unassigned) [Compound 124] -2.22

Please look up its log10 EC50: CN(C)c1cccc(C(=O)NC2CCCc3ccccc3C2)c1 (single isomer, unassigned) -1.10

Please look up its log10 EC50: Cc1nc(C)c(C(=O)NC2CCCc3ccccc3C2)s1 (single isomer, unassigned) [Compound 28] -1.31

Please look up its log10 EC50: Cc1cnc(C(=O)NC2CCCc3ccccc3C2)c(N)n1 (centres unmarked) -1.72

Please look up its log10 EC50: Cc1ccc(S(C)(=O)=O)cc1C(=O)NC1CCCc2ccccc2C1 (centres unmarked) 0.11

Please look up its log10 EC50: CNc1nc(C)ccc1C(=O)NC1CCCc2ccccc2C1 (single isomer, unassigned) [Compound 123] -0.59

Please look up its log10 EC50: O=C(NC1CCCc2ccccc2C1)c1cn2ccccc2n1 (centres unmarked) 1.18

Please look up its log10 EC50: O=C(NC1CCCc2ccccc2C1)c1nc(NCc2ccccc2)ccc1Cl (centres unmarked) 1.45

Please look up its log10 EC50: Nc1ncccc1C(=O)NC1CCCc2ccccc2C1 (single isomer, unassigned) [Compound 24] -1.52

Please look up its log10 EC50: "COCc1ccc(C(=O)N[C@H]2CCCc3ccccc3C2)cn1" -0.89

Please look up its log10 EC50: Cc1cc(C(=O)NC2CCCc3ccccc3C2)c(C)[nH]1 (single isomer, unassigned; (+)) [Compound 49] -1.40

Please look up its log10 EC50: Cc1ccc(C(=O)NC2CCCc3ccccc3C2)c(C)n1 (single isomer, unassigned) -1.40

Please look up its log10 EC50: O=C(NC1CCCc2ccccc2C1)c1cnn(-c2ccccc2)c1C(F)(F)F (single isomer, unassigned) [Compound 34] -1.22

Please look up its log10 EC50: CN1CC(=O)Nc2cc(C(=O)NC3CCCc4ccccc4C3)ccc21 (centres unmarked) 0.69

Please look up its log10 EC50: Cc1ccc(C(=O)NC2CCCc3ccccc3C2)c(Cl)n1 (centres unmarked) -1.42

Please look up its log10 EC50: "Cc1cc(C(=O)N[C@H]2CCCc3ccccc3C2)n(C)n1" -1.82

Please look up its log10 EC50: "Cc1ccc(C(=O)N[C@H]2CCCc3ccccc3C2)cc1N(C)C" -0.36

Please look up its log10 EC50: "Nc1nc(Cl)ccc1C(=O)N[C@H]1CCCc2ccccc2C1" -2.70

Please look up its log10 EC50: Cc1cnc(C(=O)NC2CCCc3ccccc3C2)cn1 (single isomer, unassigned) [Compound 32] -1.33

Please look up its log10 EC50: Cc1ncccc1C(=O)NC1CCCc2ccccc2C1 (single isomer, unassigned) 0.26

Please look up its log10 EC50: "O=C(N[C@H]1CCCc2ccccc2C1)c1ccc(OCC(F)(F)F)cc1" -1.40

Please look up its log10 EC50: O=C(NC1CCCc2ccccc2C1)c1cnn(-c2ccccc2)c1C(F)(F)F (single isomer, unassigned) [Compound 35] 0.52

Please look up its log10 EC50: O=C(NC1CCCc2ccccc2C1)c1ccc(N2CCCC2)nc1 (centres unmarked) -0.55

Please look up its log10 EC50: NS(=O)(=O)c1cc(C(=O)NC2CCCc3ccccc3C2)ccc1Cl (centres unmarked) 1.00

Please look up its log10 EC50: O=C(NC1CCCc2ccccc2C1)c1cccc2snnc12 (centres unmarked) -1.08

Please look up its log10 EC50: O=C(NC1CCCc2ccccc2C1)c1ccc(N2CCOCC2)nc1 (centres unmarked) 0.78

Please look up its log10 EC50: Cc1cncc(C(=O)NC2CCCc3ccccc3C2)c1 (centres unmarked) 0.36

Please look up its log10 EC50: Nc1ncccc1C(=O)NC1CCCc2ccccc2C1 (centres unmarked) [Compound 25, HYDROCHLORIDE] -1.51

Please look up its log10 EC50: Nc1nc(Cl)ccc1C(=O)NC1CCCc2ccccc2C1 (centres unmarked) -1.05

Please look up its log10 EC50: Cc1cc(C(=O)NC2CCCc3ccccc3C2)c(C)n1-c1ccccc1 (centres unmarked) -1.70

Please look up its log10 EC50: O=C(NC1CCCc2ccccc2C1)c1ccc(F)cc1 (single isomer, unassigned; (+)) [Compound 1b] 0.78

Please look up its log10 EC50: "Cc1cnc(C(=O)N[C@H]2CCCc3ccccc3C2)c(N)n1" -1.52

Please look up its log10 EC50: "Cc1nc(N)c(C(=O)N[C@H]2CCCc3ccccc3C2)nc1C" -1.70

Please look up its log10 EC50: O=C(NC1CCCc2ccccc2C1)c1nc(Cl)ccc1Cl (centres unmarked) -0.60

Value source: patent US7709478B2
